Values from the RNAGym collection of RNA variant scans (doi:10.7554/elife.80360)

B1: CPEB3 Ribozyme (parent)
chain: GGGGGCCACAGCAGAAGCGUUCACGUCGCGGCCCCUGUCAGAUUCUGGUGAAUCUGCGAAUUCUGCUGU

Variants of: B1
Assay protocol: self-cleavage, relative activity (ratio to wild type); higher = more cleavage; co-transcriptional

# Residue change, self-cleavage
measured = [
    ("U20A G37C", 0.156),
    ("U20G U44G", 0.168),
    ("C6A C34U", 0.339),
    ("G56C U69C", 1.02),
    ("G19A U38C", 0.16),
    ("G25A U67G", 0.266),
    ("C6G C57U", 0.189),
    ("U36C G48C", 0.948),
    ("G4U C54U", 0.709),
    ("U46G A60C", 0.413),
    ("C12U C29U", 0.232),
    ("A16G G68U", 0.956),
    ("C45A U46C", 1),
    ("C12U G14A", 0.19),
    ("G17U C45U", 0.528),
    ("C7U C33G", 0.245),
    ("C34U U55G", 0.84),
    ("C34A U46G", 0.843),
    ("G37U A42U", 0.246),
    ("A13C U46C", 0.761),
    ("G2U A40C", 0.087),
    ("A8C C63U", 0.972),
]
